system_name: SHP2-C SH2;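 also: peptide library displayed on the E. coli surface as eCPX fusions, selected cells deep-sequenced, score is each peptide's frequency after selection divided by its frequency in the input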
assay_notes: SH2 binding enrichment of the phosphorylated peptide, bacterial display (enrichment ratio); higher = better substrate or ligand; peptides without Tyr show the background
Form field: SH2 binding enrichment (one value per entry).

# sequence_input, SH2 binding enrichment
records = [
    ("VVLGSYDRLRV [IFT172_Y260]", 0.863),
    ("GVKLTYGDAQS [SLC28A1_Y404_N409S]", 0.646),
    ("HFECKYVINAI [MAOA_Y268_YF]", 0.49),
    ("RFFTTYDTNGR [CLCA1_Y665_YF]", 1.67),
    ("IVEYAYNDKAI [PUM3_Y259]", 0.656),
    ("QGLRLYRPHLA [BTK_Y617]", 1.04),
    ("ETKENYGKTLK [CHL1_Y291]", 0.562),
    ("FMLFQYLKQIE [RPAP3_Y569_D564Y_YF]", 1.48),
    ("NKFTTYLPRLP [C9orf24_Y126_YF]", 1.02),
    ("IDDNEYAFLKA [HNF4A_Y286_YF]", 0.546),
    ("RDMNAYIRPSP [MMAA_Y207]", 0.693),
    ("YADGVYLALEE [DUOX2_Y70_Q71L]", 0.679),
    ("PLQKIYNFNVL [SLC4A1_Y553_T552I_YF]", 1.08),
    ("EREYKYDAHNY [OAT_Y50_G51D]", 0.74),
    ("MHRRQYELLGG [GNAS_Y391_L388R]", 0.349),
    ("ANQDDYISFRH [IMP4_Y226]", 0.617),
    ("FQRLQYIKQLG [SAMHD1_Y146_R145Q]", 0.666),
    ("FSDPDYLAAVD [GLB1_Y154_S149F]", 0.551),
    ("TRTDAYAVSSF", 0.525),
    ("SFNNKYGMVAQ [APOB_Y276_K273N_YF]", 0.68),
    ("SGGMDYGMVGG [TNRC6B_Y1382]", 0.765),
    ("QLCVSYPGGFT [PROS1_Y259_N258S_YF]", 0.687),
    ("ISSLRYELLEE [TRPC6_Y896]", 0.754),
    ("VRFVDYVLFRS [FAM189B_Y361_S358F]", 1.77),
    ("QSVEPYTKQQL [STAT3_Y640]", 0.649),
    ("WVFNHYRCIIW [BRCA2_Y2624_W2626C_YF]", 0.755),
    ("LITTLYIGFLG [KCNQ1_Y267]", 0.808),
    ("SIKHKYVTALF [KCNH2_Y611_D609H_YF]", 0.901),
    ("KPLMPSMRYSR [SMARCE1_Y73_Y73S]", 0.499),
    ("ERIEFYELDKK [PMM2_Y145]", 0.626),
    ("LLREWYMIISR [HUWE1_Y4066]", 1.5),
    ("VKANTYEKYWP [GATM_Y100]", 0.888),
    ("FARNSYVAGQF [G6PD_Y107_YF]", 0.517),
    ("RNGNRYFKGIV [DCX_Y64_D62N]", 0.726),
    ("ALAAPYVLYPG [CEFIP_Y1332]", 0.602),
    ("RSIGEYDVLRG [PRKDC_Y2936]", 0.587),
    ("PNRILYGDFQQ [MYH7_Y715_R719Q]", 0.935),
    ("KELANYFKLHH [AK7_Y390_YF]", 0.949),
    ("GDYYCYLAEVA [YWHAG_Y133_R132C]", 0.862),
    ("GIFEDYVEGLR [MYL6_Y89_T85I_YF]", 0.645),
    ("KWKQKYEESQS [MYH6_Y1462_E1457K]", 1.09),
    ("VRQQVYKKVEE [HADHA_Y283]", 0.513),
    ("LGSNGCKKLLK [SEPSECS_Y334_Y334C]", 0.786),
    ("ADELEYSRTGL [MMUT_Y287_G284E]", 0.623),
    ("IMAYFYMCDRA [CASD1_Y382]", 1.02),
    ("CERFSYFGMKA [SLC15A2_Y60_YF]", 0.577),
    ("ETAENYLGFTA [HSPA9_Y181_H184Y_YF]", 0.654),
]
